Biological target: T1, CRD1-3
T1 construct: also called fragmented human CD137-Fc fusion protein CRD1-3
T1 sequence (chain, as listed by the source limits assumed): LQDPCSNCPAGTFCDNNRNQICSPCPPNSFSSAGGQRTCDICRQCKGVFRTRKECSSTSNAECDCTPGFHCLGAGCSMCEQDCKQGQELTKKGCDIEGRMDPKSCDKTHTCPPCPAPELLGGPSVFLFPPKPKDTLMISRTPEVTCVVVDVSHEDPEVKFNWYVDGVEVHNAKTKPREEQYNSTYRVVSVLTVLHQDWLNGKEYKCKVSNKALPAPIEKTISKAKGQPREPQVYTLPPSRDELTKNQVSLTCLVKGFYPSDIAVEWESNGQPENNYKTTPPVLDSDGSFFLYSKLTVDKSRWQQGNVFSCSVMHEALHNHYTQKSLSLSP
Experiment: ELISA, coated CD137-Fc protein 2 µg/mL, antibody 10 or 5 µg/mL; absorbance 620 nm divided by that of the uncoated well
Readout name: Ratio with respect to Non-Coating
Answers are plain numbers.

Use the examples below as a reference point.
{"Binder": "R4 (antibody, V domains shown, Naive library clone; Fab on phage in the phage ELISA) VH: EVQLVQSGAEVKKPGASVKVSCKASGYTFSGYYMHWVRQAPGQGLEWMGWINPNSGDTNYAQNFQGRVTMTRDTSISTAYMELSRLRSDDTAVYYCARDGTGYSSSPDYWGQGTPVTVSS VL: QSALTQPASVSGSPGQSITISCTGTSSDVGGYNYVSWYQQHPGKAPKLMIYDVSNRPSGVSNRFSGSKSGNTASLTISGLQAEDEADYYCSSYTSSSTRWVFGGGTKLTVL", "Ratio with respect to Non-Coating": 15.3}
{"Binder": "B (antibody, human IgG1, kappa, V domains shown, also called Control B) VH: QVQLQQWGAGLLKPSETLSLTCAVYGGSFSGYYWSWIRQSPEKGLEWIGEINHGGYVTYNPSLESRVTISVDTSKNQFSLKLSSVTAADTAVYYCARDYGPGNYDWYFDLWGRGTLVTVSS VL: EIVLTQSPATLSLSPGERATLSCRASQSVSSYLAWYQQKPGQAPRLLIYDASNRATGIPARFSGSGSGTDFTLTISSLEPEDFAVYYCQQRSNWPPALTFGGGTKVEIKR", "Ratio with respect to Non-Coating": 47.5}

Recorded Ratio with respect to Non-Coating of R7 (antibody, V domains shown, Synthetic library clone; Fab on phage in the phage ELISA) VH: QVQLLESGGGLVQPGGSLRLSCAASGFTFSSYAMSWVRQAPGKGLEWVSAISGSGGSTYYADSVKGRFTISRDNSKNTLYLQMNSLRAEDTAVYYCARDRAMYHPSFNYWGQGTLVTVSS VL: DIQMTQSPSSLSASVGDRVTITCRASQSISSYLNWYQQKPGKAPKLLIYAASSLQSGVPSRFSGSGSGTDFTLTISSLQPEDFATYYCQQFNSYPLTFGGGTKVEIK , please. 5
